system: PPARg:RXRa 90nM:30nM, anti-RXR (NR concentration 90 nM, RXRa partner concentration 30 nM); experiment: PBM binding z-score (relative to random genomic background probes); higher = stronger binding; sequences stand for … in GC…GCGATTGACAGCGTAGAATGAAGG
This listing pairs sequences with measured PBM binding z-score.

Recorded results for 5 sequences are shown here.
INSERT INTO results (construct_sequence, measurement_name, val) VALUES
  ('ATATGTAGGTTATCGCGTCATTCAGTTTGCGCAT', 'PBM binding z-score', 3.08),
  ('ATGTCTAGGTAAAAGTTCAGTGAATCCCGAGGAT', 'PBM binding z-score', 7.4),
  ('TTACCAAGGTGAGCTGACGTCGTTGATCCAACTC', 'PBM binding z-score', -0.026),
  ('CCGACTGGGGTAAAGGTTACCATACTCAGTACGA', 'PBM binding z-score', 10.7),
  ('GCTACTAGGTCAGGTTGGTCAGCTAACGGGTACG', 'PBM binding z-score', 3.19);

Record `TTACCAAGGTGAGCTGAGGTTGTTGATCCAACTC` : what is its PBM binding z-score with PPARg:RXRa 90nM:30nM, anti-RXR (NR concentration 90 nM, RXRa partner concentration 30 nM)?
-0.0442

Record `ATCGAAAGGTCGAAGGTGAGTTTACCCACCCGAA` : what is its PBM binding z-score with PPARg:RXRa 90nM:30nM, anti-RXR (NR concentration 90 nM, RXRa partner concentration 30 nM)?
3.81

Record `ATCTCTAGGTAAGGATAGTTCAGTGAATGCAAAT` : what is its PBM binding z-score with PPARg:RXRa 90nM:30nM, anti-RXR (NR concentration 90 nM, RXRa partner concentration 30 nM)?
0.134

Record `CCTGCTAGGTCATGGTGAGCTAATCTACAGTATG` : what is its PBM binding z-score with PPARg:RXRa 90nM:30nM, anti-RXR (NR concentration 90 nM, RXRa partner concentration 30 nM)?
1.78

Record `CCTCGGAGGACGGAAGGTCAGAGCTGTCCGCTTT` : what is its PBM binding z-score with PPARg:RXRa 90nM:30nM, anti-RXR (NR concentration 90 nM, RXRa partner concentration 30 nM)?
-0.314

Record `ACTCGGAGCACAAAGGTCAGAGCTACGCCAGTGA` : what is its PBM binding z-score with PPARg:RXRa 90nM:30nM, anti-RXR (NR concentration 90 nM, RXRa partner concentration 30 nM)?
6.24

Record `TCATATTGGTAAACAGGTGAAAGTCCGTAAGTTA` : what is its PBM binding z-score with PPARg:RXRa 90nM:30nM, anti-RXR (NR concentration 90 nM, RXRa partner concentration 30 nM)?
3.3

Record `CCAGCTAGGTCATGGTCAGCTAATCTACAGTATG` : what is its PBM binding z-score with PPARg:RXRa 90nM:30nM, anti-RXR (NR concentration 90 nM, RXRa partner concentration 30 nM)?
2.17

Record `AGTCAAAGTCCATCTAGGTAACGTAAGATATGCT` : what is its PBM binding z-score with PPARg:RXRa 90nM:30nM, anti-RXR (NR concentration 90 nM, RXRa partner concentration 30 nM)?
0.00564

Record `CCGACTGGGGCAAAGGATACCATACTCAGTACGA` : what is its PBM binding z-score with PPARg:RXRa 90nM:30nM, anti-RXR (NR concentration 90 nM, RXRa partner concentration 30 nM)?
5.31

Record `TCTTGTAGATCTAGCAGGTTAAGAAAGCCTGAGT` : what is its PBM binding z-score with PPARg:RXRa 90nM:30nM, anti-RXR (NR concentration 90 nM, RXRa partner concentration 30 nM)?
1.86

Record `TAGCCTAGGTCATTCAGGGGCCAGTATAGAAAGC` : what is its PBM binding z-score with PPARg:RXRa 90nM:30nM, anti-RXR (NR concentration 90 nM, RXRa partner concentration 30 nM)?
1.45

Record `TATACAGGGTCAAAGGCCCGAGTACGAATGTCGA` : what is its PBM binding z-score with PPARg:RXRa 90nM:30nM, anti-RXR (NR concentration 90 nM, RXRa partner concentration 30 nM)?
5.12

Record `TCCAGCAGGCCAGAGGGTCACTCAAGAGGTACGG` : what is its PBM binding z-score with PPARg:RXRa 90nM:30nM, anti-RXR (NR concentration 90 nM, RXRa partner concentration 30 nM)?
1.79

Record `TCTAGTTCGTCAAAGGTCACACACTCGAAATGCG` : what is its PBM binding z-score with PPARg:RXRa 90nM:30nM, anti-RXR (NR concentration 90 nM, RXRa partner concentration 30 nM)?
6.28

Record `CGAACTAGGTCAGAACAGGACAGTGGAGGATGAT` : what is its PBM binding z-score with PPARg:RXRa 90nM:30nM, anti-RXR (NR concentration 90 nM, RXRa partner concentration 30 nM)?
3.73

Record `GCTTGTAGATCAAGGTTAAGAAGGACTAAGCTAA` : what is its PBM binding z-score with PPARg:RXRa 90nM:30nM, anti-RXR (NR concentration 90 nM, RXRa partner concentration 30 nM)?
1.79

Record `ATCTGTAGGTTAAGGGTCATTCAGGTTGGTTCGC` : what is its PBM binding z-score with PPARg:RXRa 90nM:30nM, anti-RXR (NR concentration 90 nM, RXRa partner concentration 30 nM)?
10.6

Record `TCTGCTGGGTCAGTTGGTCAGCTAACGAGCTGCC` : what is its PBM binding z-score with PPARg:RXRa 90nM:30nM, anti-RXR (NR concentration 90 nM, RXRa partner concentration 30 nM)?
1.19

Record `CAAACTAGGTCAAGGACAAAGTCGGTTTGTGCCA` : what is its PBM binding z-score with PPARg:RXRa 90nM:30nM, anti-RXR (NR concentration 90 nM, RXRa partner concentration 30 nM)?
6.38

Record `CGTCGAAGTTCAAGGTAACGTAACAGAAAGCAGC` : what is its PBM binding z-score with PPARg:RXRa 90nM:30nM, anti-RXR (NR concentration 90 nM, RXRa partner concentration 30 nM)?
0.847

====

system: PPARg:RXRa DBDmut IVT, anti-RXR (DBD mutation: RXRa K156A/R161A, NR concentration 270 nM, RXRa partner concentration 90 nM); assay: PBM binding z-score (relative to random genomic background probes); higher = stronger binding; sequences stand for … in GC…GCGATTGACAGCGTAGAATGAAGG
This listing pairs sequences with measured PBM binding z-score.
A bare number is all that is needed in reply.

Recorded results for 8 sequences are shown here.
INSERT INTO assay_data (construct_sequence, val) VALUES
  ('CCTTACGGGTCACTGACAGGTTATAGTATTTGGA', 3.44),
  ('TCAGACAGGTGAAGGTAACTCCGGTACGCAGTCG', 2.59),
  ('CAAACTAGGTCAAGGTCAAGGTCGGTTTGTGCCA', 8.6),
  ('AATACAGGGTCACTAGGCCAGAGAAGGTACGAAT', 4.07),
  ('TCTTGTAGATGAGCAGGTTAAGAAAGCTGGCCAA', 0.934),
  ('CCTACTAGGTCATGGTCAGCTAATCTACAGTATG', 7.3),
  ('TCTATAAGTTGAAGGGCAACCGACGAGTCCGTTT', 2.03),
  ('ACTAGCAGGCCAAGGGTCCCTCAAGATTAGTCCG', 0.0687);

Fill in: PBM binding z-score of `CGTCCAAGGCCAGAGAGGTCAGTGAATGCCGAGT` is ___
0.239

Fill in: PBM binding z-score of `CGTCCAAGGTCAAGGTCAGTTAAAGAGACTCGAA` is ___
3.64

Fill in: PBM binding z-score of `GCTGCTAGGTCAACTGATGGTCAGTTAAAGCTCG` is ___
4.66

Fill in: PBM binding z-score of `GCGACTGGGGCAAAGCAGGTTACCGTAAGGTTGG` is ___
4.2

====

system: VDR:RXRa (NR concentration 270 nM, RXRa partner concentration 90 nM); assay: PBM binding z-score (relative to random genomic background probes); higher = stronger binding; sequences stand for … in GC…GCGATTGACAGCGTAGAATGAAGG
measurement name: PBM binding z-score
A bare number is all that is needed in reply.

INSERT INTO results (construct_sequence, val) VALUES
  ('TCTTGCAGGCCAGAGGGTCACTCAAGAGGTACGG', 1.7),
  ('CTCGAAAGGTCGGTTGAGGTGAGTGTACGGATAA', 2.42),
  ('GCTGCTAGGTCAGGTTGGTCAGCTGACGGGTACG', 0.533);

Fill in: PBM binding z-score of `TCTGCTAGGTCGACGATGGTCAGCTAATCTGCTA` is ___
-0.229
